- Tested on: CHO
- assay remarks: Inhibition of wild-type human SLACK expressed in CHO cells assessed as efficacy at 30 uM by whole cell voltage clamp electrophysiology assay
- Assay type: cell-based
- setup conditions: Cricetulus griseus
Let's look at some molecules and their measured Efficacy.
Kindly provide the numeric value in % only, without the unit symbol.

// below: answered molecules
query: For the molecule shown here, CC(C)Oc1ccccc1S(=O)(=O)N1CC(c2nc(-c3ccsc3)no2)C1 , give the reported Efficacy.
result: 101

query: Entry to check: CCOc1ccccc1S(=O)(=O)N1CC(c2nc(-c3ccc(F)s3)no2)C1
result: 100

query: Further, for CCOc1ccccc1S(=O)(=O)N1CC(c2nc(-c3ccc(F)cc3)no2)C1 ?
result: 101

---
query: If you can, please state the reported Efficacy value of CCOc1ccccc1S(=O)(=O)N1CC(c2nc(-c3ccc(F)cc3Cl)no2)C1 .
result: 100

query: What do you get for O=S(=O)(c1cccc2cccnc12)N1CC(c2nc(-c3ccc(F)cc3)no2)C1 ?
result: 100

query: Another molecule to look at: COc1ccc(Cl)cc1NC(=O)CN1CCN(S(=O)(=O)N2CCC(C)CC2)CC1
result: 95

query: Now consider O=S(=O)(c1cccc2c1OCCC2)N1CC(c2nc(-c3ccc(F)cc3)no2)C1 and answer again.
result: 100

query: Queued: CCOc1ccccc1S(=O)(=O)N1CC(c2nc(-c3ccsc3)no2)C1
result: 100

query: Now the same for CCOc1ccccc1S(=O)(=O)N1CCC(c2nc(-c3ccc(F)cc3)no2)CC1
result: 100

query: Now give it for Cc1ccc2cccc(S(=O)(=O)N3CC(c4nc(-c5ccc(F)cc5)no4)C3)c2n1 too.
result: 100

query: Again, but for O=S(=O)(c1ccccc1OCC(F)(F)F)N1CC(c2nc(-c3ccc(F)cc3)no2)C1
result: 100

###

- assay remarks: Plasma protein binding in mouse assessed as unbound fraction by equilibrium dialysis method
- Format: ADME, cell-free
// values below are reported Fu

query: Given the compound Cc1ccc2cccc(S(=O)(=O)N3CC(c4nc(-c5ccc(F)cc5)no4)C3)c2n1 , what is its reported Fu?
result: < 0.01

query: Next entry: CCOc1ccccc1S(=O)(=O)N1CC(c2nc(-c3ccc(F)cc3Cl)no2)C1
result: 0.014

query: Also check CC(C)Oc1ccccc1S(=O)(=O)N1CC(c2nc(-c3ccsc3)no2)C1
result: < 0.01

query: Also, O=S(=O)(c1cccc2c1OCCC2)N1CC(c2nc(-c3ccc(F)cc3)no2)C1 please.
result: < 0.01

query: Would you kindly repeat that for O=S(=O)(c1ccccc1OCC(F)(F)F)N1CC(c2nc(-c3ccc(F)cc3)no2)C1 ?
result: 0.012

query: Then [2H]C([2H])([2H])C([2H])([2H])Oc1ccccc1S(=O)(=O)N1CC(c2nc(-c3ccc(F)cc3)no2)C1 ?
result: 0.012

query: Please answer likewise for O=S(=O)(c1cccc2cccnc12)N1CC(c2nc(-c3ccc(F)cc3)no2)C1
result: 0.014

query: And for CCOc1ccccc1S(=O)(=O)N1CC(c2nc(-c3ccsc3)no2)C1 ?
result: 0.022

query: Next record, please: CCOc1ccccc1S(=O)(=O)N1CCC(c2nc(-c3ccc(F)cc3)no2)CC1
result: < 0.01

query: Also need CCOc1ccccc1S(=O)(=O)N1CC(c2nc(-c3ccc(F)s3)no2)C1 , thanks.
result: 0.024

query: Entry CCOc1ccccc1S(=O)(=O)N1CC(c2nc(-c3ccc(F)cc3)no2)C1 please
result: 0.012

###

- Tested on: HEK293
- assay remarks: Inhibition of wild-type human SLACK expressed in HEK293 cells assessed as efficacy at 30 uM by thallium flux assay relative to control
- Type: cell-based
Calls of active or inactive are those of the source. The calls are words filed in the database; no cut-off is given here.
measured parameter: Efficacy

Before answering, review these 8 worked examples.
query: Look at this compound and give its reported Efficacy. CCOc1ccccc1S(=O)(=O)N1CC(c2nc(-c3ccc(C)cc3)no2)C1
result: inactive

query: Try this compound too: O=S(=O)(c1cccc2c1OCCC2)N1CC(c2nc(-c3ccc(F)cc3)no2)C1
result: 93%

query: CCOc1ccccc1S(=O)(=O)N1CC(c2cc(-c3ccc(F)cc3)on2)C1 ?
result: inactive

query: And then CCOc1ccccc1S(=O)(=O)N1CC(c2nc(-c3ccc(F)cc3)cn2C)C1 , what is it?
result: 47%

query: Follow-up item: CCOc1ccccc1S(=O)(=O)N1CC(F)(c2nc(-c3ccc(F)cc3)no2)C1
result: 98%

query: Same read-out for CCOc1ccccc1S(=O)(=O)N1CC(c2nc(-c3ccc(F)cc3Cl)no2)C1 ?
result: 95%

query: Now try CCOc1ccccc1S(=O)(=O)N1CC(c2nc(-c3ccc(F)cc3F)no2)C1 .
result: 93%

query: What would you report for O=S(=O)(c1cccc(Cl)c1)N1CC(c2nc(-c3ccsc3)no2)C1 ?
result: inactive

Further cases:
query: What does the data say about its Efficacy? Entry: CCOc1ccccc1S(=O)(=O)N1CC(c2nc(-c3ccccc3)no2)C1
result: 51%

query: What do you get for CCOc1ccccc1S(=O)(=O)N1CC(c2nc(-c3ccco3)no2)C1 ?
result: 44%

query: Please do the same for COc1cccc(S(=O)(=O)N2CC(c3nc(-c4ccsc4)no3)C2)c1 as well.
result: inactive

query: Input CCOc1ccccc1S(=O)(=O)N1CC(c2nc(-c3cnsc3)no2)C1
result: 106%

query: And for CCOc1ncccc1S(=O)(=O)N1CC(c2nc(-c3ccc(F)cc3)no2)C1 ?
result: 46%

###

- measurement target: Potassium channel subfamily T member 2 (Homo sapiens) (UniProt Q6UVM3)
- Sequence (Q6UVM3 whole entry): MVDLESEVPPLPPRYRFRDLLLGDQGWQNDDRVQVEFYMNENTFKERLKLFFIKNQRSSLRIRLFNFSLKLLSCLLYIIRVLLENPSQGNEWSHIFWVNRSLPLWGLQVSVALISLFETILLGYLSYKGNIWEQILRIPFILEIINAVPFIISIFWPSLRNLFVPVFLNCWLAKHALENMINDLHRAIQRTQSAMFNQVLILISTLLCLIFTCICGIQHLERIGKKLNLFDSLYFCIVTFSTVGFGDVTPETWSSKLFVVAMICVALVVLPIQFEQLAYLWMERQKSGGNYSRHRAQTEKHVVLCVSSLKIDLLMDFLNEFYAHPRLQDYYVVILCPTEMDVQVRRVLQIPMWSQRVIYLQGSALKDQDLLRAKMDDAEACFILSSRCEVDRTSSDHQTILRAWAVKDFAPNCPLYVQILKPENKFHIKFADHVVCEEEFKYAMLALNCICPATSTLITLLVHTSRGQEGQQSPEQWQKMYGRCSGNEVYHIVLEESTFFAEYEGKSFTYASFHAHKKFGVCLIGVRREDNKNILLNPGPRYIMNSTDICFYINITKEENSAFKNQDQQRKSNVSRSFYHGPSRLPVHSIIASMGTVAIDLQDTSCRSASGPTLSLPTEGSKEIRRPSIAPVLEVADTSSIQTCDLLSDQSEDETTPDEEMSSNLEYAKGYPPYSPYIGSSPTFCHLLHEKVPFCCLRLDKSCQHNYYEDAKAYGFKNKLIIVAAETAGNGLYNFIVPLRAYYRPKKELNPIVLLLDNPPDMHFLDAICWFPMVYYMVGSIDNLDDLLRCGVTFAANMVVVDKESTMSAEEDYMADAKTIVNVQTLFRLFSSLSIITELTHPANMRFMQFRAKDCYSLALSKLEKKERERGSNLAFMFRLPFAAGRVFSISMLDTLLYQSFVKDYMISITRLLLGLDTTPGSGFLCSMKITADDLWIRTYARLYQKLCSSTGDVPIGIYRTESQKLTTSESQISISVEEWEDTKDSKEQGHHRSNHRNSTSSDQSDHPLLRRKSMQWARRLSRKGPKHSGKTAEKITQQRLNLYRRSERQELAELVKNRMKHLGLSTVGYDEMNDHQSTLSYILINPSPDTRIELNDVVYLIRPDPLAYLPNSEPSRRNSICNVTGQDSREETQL
- assay remarks: Inhibition of SLICK (unknown origin) expressed in HEK293 cells assessed as efficacy at 30 uM by thallium flux assay relative to control
- Type: cell-based
Returns one of y or n; y when Efficacy is >= 60%.

query: hey, is Efficacy for this one >= 60%? CC(C)Oc1ccccc1S(=O)(=O)N1CC(c2nc(-c3ccsc3)no2)C1
result: n

query: Next: Cc1ccc2cccc(S(=O)(=O)N3CC(c4nc(-c5ccc(F)cc5)no4)C3)c2n1
result: y

query: What about this compound? O=S(=O)(c1ccccc1OCC(F)(F)F)N1CC(c2nc(-c3ccc(F)cc3)no2)C1
result: n

query: Here is the next compound: CCOc1ccccc1S(=O)(=O)N1CCC(c2nc(-c3ccc(F)cc3)no2)CC1
result: n

Next:
query: Check this compound for Efficacy at or above 60%: CCOc1ccccc1S(=O)(=O)N1CC(c2nc(-c3ccc(F)cc3)no2)C1
result: n

query: Quick one: CCOc1ccccc1S(=O)(=O)N1CC(c2nc(-c3ccc(F)cc3Cl)no2)C1
result: n

query: // query: O=S(=O)(c1cccc2cccnc12)N1CC(c2nc(-c3ccc(F)cc3)no2)C1
result: n

query: Again, but for O=S(=O)(c1cccc2c1OCCC2)N1CC(c2nc(-c3ccc(F)cc3)no2)C1
result: n

query: # repeat for CCOc1ccccc1S(=O)(=O)N1CC(c2nc(-c3ccc(F)s3)no2)C1
result: y

query: Cool, now CCOc1ccccc1S(=O)(=O)N1CC(c2nc(-c3ccsc3)no2)C1
result: n

###

- assay remarks: Inhibition of wild-type human SLACK expressed in CHO cells by whole cell voltage clamp electrophysiology assay
- Assay type: cell-based
- setup conditions: Cricetulus griseus
measured parameter: IC50

Worked examples, 3 molecules total:
query: Reported IC50, molecule Cc1ccc2cccc(S(=O)(=O)N3CC(c4nc(-c5ccc(F)cc5)no4)C3)c2n1 : ____
result: 320 nM

query: Also, CC(C)Oc1ccccc1S(=O)(=O)N1CC(c2nc(-c3ccsc3)no2)C1 please.
result: 1090 nM

query: And then O=S(=O)(c1cccc2c1OCCC2)N1CC(c2nc(-c3ccc(F)cc3)no2)C1 , what is it?
result: 1630 nM

More entries:
query: What does the data say about its IC50? Entry: O=S(=O)(c1ccccc1OCC(F)(F)F)N1CC(c2nc(-c3ccc(F)cc3)no2)C1
result: 1760 nM

query: And what about the molecule [2H]C([2H])([2H])C([2H])([2H])Oc1ccccc1S(=O)(=O)N1CC(c2nc(-c3ccc(F)cc3)no2)C1 ?
result: 1040 nM

query: And then COc1ccc(Cl)cc1NC(=O)CN1CCN(S(=O)(=O)N2CCC(C)CC2)CC1 , what is it?
result: 2280 nM

###

- measurement target: Calcium-activated potassium channel subunit alpha-1 (Homo sapiens)
- assay remarks: Inhibition of Maxi-K (unknown origin) expressed in HEK293 cells by thallium flux assay
- Format: cell-based
Activity calls are given as the source filed them. No cut-off for these calls is given here.
measured parameter: inhibition

These solved cases illustrate the format of a correct answer.
query: Which value of inhibition has been reported for CCOc1ccccc1S(=O)(=O)N1CC(c2nc(-c3ccc(F)cc3)no2)C1 in the records?
result: inactive

query: Also CCOc1ccccc1S(=O)(=O)N1CC(c2nc(-c3ccsc3)no2)C1 ?
result: inactive

query: Lookup O=S(=O)(c1cccc2c1OCCC2)N1CC(c2nc(-c3ccc(F)cc3)no2)C1
result: inactive

query: // same read-out, input: CCOc1ccccc1S(=O)(=O)N1CC(c2nc(-c3ccc(F)s3)no2)C1
result: inactive

query: Now the same for CC(C)Oc1ccccc1S(=O)(=O)N1CC(c2nc(-c3ccsc3)no2)C1
result: inactive

query: Quick one: O=S(=O)(c1cccc2cccnc12)N1CC(c2nc(-c3ccc(F)cc3)no2)C1
result: inactive

query: Param item: CCOc1ccccc1S(=O)(=O)N1CCC(c2nc(-c3ccc(F)cc3)no2)CC1
result: inactive

query: Request: Cc1ccc2cccc(S(=O)(=O)N3CC(c4nc(-c5ccc(F)cc5)no4)C3)c2n1
result: inactive

query: Same lookup for O=S(=O)(c1ccccc1OCC(F)(F)F)N1CC(c2nc(-c3ccc(F)cc3)no2)C1 , please.
result: inactive

Okay, next one:
query: Item under review: CCOc1ccccc1S(=O)(=O)N1CC(c2nc(-c3ccc(F)cc3Cl)no2)C1 . Reported inhibition?
result: inactive
